Give inhibition of growth at 10 µM for every item shown.
Assay: Growth inhibition of human MOLT4 cells at 10 uM after 48 hrs by sulforhodamine B assay
Type: functional
Details: MOLT-4, 48 h, read-out: GI
Numbers only, in %.

For every item below, please supply its inhibition of growth at 10 µM.
1. COc1ccc(Cc2nnc(Nc3ccc(NC(=O)Nc4ccc(Cl)c(C(F)(F)F)c4)cc3)c3ccccc23)cc1
2. COc1ccc(Cc2nnc(Nc3ccc(NC(=O)Nc4ccc(Cl)cc4)cc3)c3ccccc23)cc1
3. COc1ccc(Cc2nnc(Nc3cccc(Cl)c3)c3ccccc23)cc1

Given back:
[50, 44, 37]

Asked: Any idea what inhibition of growth at 10 µM was measured for COc1ccc(Cc2nnc(Nc3ccc(Cl)c(C(F)(F)F)c3)c3ccccc23)cc1 ?
Given back: 69

###

Tested on: NCI-H322M
Assay: Growth inhibition of human NCI-H322M cells at 10 uM after 48 hrs by sulforhodamine B assay
Type: functional
Conditions: read-out: GI
EXPERIMENTAL_ENDPOINT: inhibition of growth at 10 µM

Sample answers from the record:
[[record]]
compound_smiles = "COc1ccc(Cc2nnc(Nc3ccc(Cl)c(C(F)(F)F)c3)c3ccccc23)cc1"
experimental_endpoint = "inhibition of growth at 10 µM"
value_measured = "37%"

[[record]]
compound_smiles = "COc1ccc(Cc2nnc(Nc3ccc(NC(=O)Nc4ccc(Cl)c(C(F)(F)F)c4)cc3)c3ccccc23)cc1"
experimental_endpoint = "inhibition of growth at 10 µM"
value_measured = "30%"

[[record]]
compound_smiles = "COc1ccc(Cc2nnc(Nc3cccc(Cl)c3)c3ccccc23)cc1"
experimental_endpoint = "inhibition of growth at 10 µM"
value_measured = "< 30%"

[[record]]
compound_smiles = "COc1ccc(Cc2nnc(Nc3ccc(NC(=O)Nc4ccc(C#N)cc4)cc3)c3ccccc23)cc1"
experimental_endpoint = "inhibition of growth at 10 µM"
value_measured = "< 30%"

[[record]]
compound_smiles = "COc1ccc(Cc2nnc(Nc3cccc(C(F)(F)F)c3)c3ccccc23)cc1"
experimental_endpoint = "inhibition of growth at 10 µM"
value_measured = "< 30%"

[[record]]
compound_smiles = "COc1ccc(Cc2nnc(Nc3ccc(NC(=O)Nc4ccccc4Cl)cc3)c3ccccc23)cc1"
experimental_endpoint = "inhibition of growth at 10 µM"
value_measured = "< 30%"


Now for another entry.
Asked: inhibition of growth at 10 µM for COc1ccc(Cc2nnc(Nc3ccc(NC(=O)Nc4cccc(C(F)(F)F)c4)cc3)c3ccccc23)cc1 ?
Given back: < 30%

###

System: M14
Test: Growth inhibition of human M14 cells at 10 uM after 48 hrs by sulforhodamine B assay
Type: functional
Conditions: M14, 48 h, read-out: GI
EXPERIMENTAL_ENDPOINT: inhibition of growth at 10 µM (%)
Numbers only, in %.

Check out these entries, answers already filled in.
[[record]]
compound_smiles = "COc1ccc(Cc2nnc(Nc3ccc(NC(=O)Nc4cccc(C(F)(F)F)c4)cc3)c3ccccc23)cc1"
unit = "%"
value_measured = 30

[[record]]
compound_smiles = "COc1ccc(Cc2nnc(Nc3ccc(NC(=O)Nc4ccc(Cl)c(C(F)(F)F)c4)cc3)c3ccccc23)cc1"
unit = "%"
value_measured = 40

[[record]]
compound_smiles = "COc1ccc(Cc2nnc(Nc3ccc(NC(=O)Nc4ccc(Cl)cc4)cc3)c3ccccc23)cc1"
unit = "%"
value_measured = 30


// next entry
Asked: Any idea what inhibition of growth at 10 µM was measured for COc1ccc(Cc2nnc(Nc3ccc(Cl)cc3)c3ccccc23)cc1 ?
Given back: 47
